Data provenance: patent US12187713B2

Assay: Pharmacokinetic Assay, single oral dose 100 mg/kg (Table 11)
Format: in vivo
Details: mouse, C57 female mice, oral (intragastric), plasma
Some compounds, each annotated with its measured half-life.
property_label: half-life (h)

Cc1c(-c2nc3cc(CN4CCC(O)C4)c(OC(F)F)cc3o2)cccc1-c1cccc(-c2nc3cc(CN4CCC[C@H]4C(=O)O)c(OC(F)F)cc3o2)c1C (some centres unmarked) [Example 14] : 6.2
Cc1c(-c2nc3cc(CN4CCC4)c(OC(F)F)cc3o2)cccc1-c1cccc(-c2nc3cc(CN4CCC[C@H]4C(=O)O)c(OC(F)F)cc3o2)c1C [Example 8] : 3.97
Cc1c(-c2nc3cc(CN4CC5(CC5)C4)c(OC(F)F)cc3o2)cccc1-c1cccc(-c2nc3cc(CN4CCC[C@H]4C(=O)O)c(OC(F)F)cc3o2)c1C [Example 74] : 8.2
Cc1c(-c2nc3c(o2)CCN(C)C3)cccc1-c1cccc(-c2nc3cc(CN4CCC[C@H]4C(=O)O)c(OC(F)F)cc3o2)c1C [Example 314] : 5.43
Cc1c(-c2nc3cc(CN4CCC[C@H]4C(=O)O)c(OC(F)F)cc3o2)cccc1-c1cccc(-c2nc3cc(CN4CCC[C@H]4C(=O)O)c(OC(F)F)cc3o2)c1C [Example 2] : 3.3
COC(=O)[C@@H]1CCCN1Cc1cc2nc(-c3cccc(-c4cccc(-c5nc6cc(CN7CCC[C@H]7C(=O)O)c(OC(F)F)cc6o5)c4C)c3C)oc2cc1OC(F)F [Example 3] : 0.39
Cc1c(-c2nc3cc(CNC4COC4)c(OC(F)F)cc3o2)cccc1-c1cccc(-c2nc3cc(CN4CCC[C@H]4C(=O)O)c(OC(F)F)cc3o2)c1C [Example 28] : 2.79
Cc1c(Nc2nccc3cc(CN4CCC[C@@]4(C)C(=O)O)cnc23)cccc1-c1cccc(-c2nc3cc(CN4CCC[C@H]4C(=O)O)c(OC(F)F)cc3o2)c1C [Example 171] : 3.66
Cc1c(-c2nc3cc(CN4CC(C)(C)C4)c(OC(F)F)cc3o2)cccc1-c1cccc(-c2nc3cc(CN4CCC[C@H]4C(=O)O)c(OC(F)F)cc3o2)c1C [Example 34] : 6.99
Cc1c(-c2nc3cc(CN4CCC4C)c(OC(F)F)cc3o2)cccc1-c1cccc(-c2nc3cc(CN4CCC[C@H]4C(=O)O)c(OC(F)F)cc3o2)c1C (some centres unmarked) [Example 36] : 8.26
Cc1c(-c2nc3c(o2)CCNC3)cccc1-c1cccc(-c2nc3cc(CN4CCC[C@H]4C(=O)O)c(OC(F)F)cc3o2)c1C [Example 190] : 3.57

----------
Biological target: PD-1/PD-L1 (Homo sapiens (Human))
Sequence (Q9NZQ7 19-238): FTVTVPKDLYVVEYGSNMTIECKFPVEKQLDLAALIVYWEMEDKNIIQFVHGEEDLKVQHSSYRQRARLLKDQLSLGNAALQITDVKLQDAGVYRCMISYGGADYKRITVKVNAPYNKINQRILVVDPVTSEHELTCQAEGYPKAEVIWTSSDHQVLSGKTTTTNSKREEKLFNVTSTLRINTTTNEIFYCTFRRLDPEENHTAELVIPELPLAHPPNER
Assay: PD-1/PD-L1 Binding Assay (Alphascreen)
Details: range symbols
pIC50: −log10 of the molar value.
property_label: pIC50

Cc1c(-c2nc3cc(CN4CCC[C@H]4C(=O)O)c(OC(F)F)cc3o2)cccc1-c1cccc(-c2ccc(CN3CCCC3)cc2F)c1C [Example 220] : 8.30 to 10.00
Cc1c(-c2nc3cc(CN4CCC[C@H]4C(=O)O)c(OC(F)F)cc3o2)cccc1-c1cccc(-c2nc3cc(CN4CC[C@@H](CO)C4)cc(C#N)c3o2)c1C [Example 154] : 7.30 to 8.30
Cc1c(-c2nc3cc(CN4CCC[C@H]4C(=O)O)c(OC(F)F)cc3o2)cccc1-c1cccc(-c2nc3cc(CN4CC(C)(CN)C4)cc(C#N)c3o2)c1C [Example 161] : 8.30 to 10.00
CNCC1CN(Cc2cc3nc(-c4cccc(-c5cccc(-c6nc7cc(CN8CCC[C@H]8C(=O)O)c(OC(F)F)cc7o6)c5C)c4C)oc3cc2OC(F)F)C1 [Example 45] : 8.30 to 10.00
Cc1c(-c2nc3c(o2)CCN(CCCF)C3)cccc1-c1cccc(-c2nc3cc(CN4CCC[C@H]4C(=O)O)c(OC(F)F)cc3o2)c1C [Example 200] : 7.30 to 8.30
Cc1c(-c2nc3cc(CN4CC[C@@H](C(=O)O)C4)c(OC(F)F)cc3o2)cccc1-c1cccc(-c2nc3cc(CN4CCCC4)cc(C#N)c3o2)c1C [Example 169] : 8.30 to 10.00
Cc1c(-c2nc3ccc(CN4CCCC4)cc3o2)cccc1-c1cccc(-c2nc3cc(CN4CCC[C@H]4C(=O)O)c(OC(F)F)cc3o2)c1C [Example 108] : 8.30 to 10.00
Cc1c(-c2nc3cc(CN4CCC[C@H]4C(=O)O)c(OC(F)F)cc3o2)cccc1-c1cccc(-c2nc3cc(CN4CC[C@@H](C#N)C4)cc(C#N)c3o2)c1C [Example 165] : 8.30 to 10.00
Cc1c(-c2nc3cc(CN(C)[C@@H]4CCC[C@@H]4O)c(OC(F)F)cc3o2)cccc1-c1cccc(-c2nc3cc(CN4CCC[C@@H]4C(=O)O)c(OC(F)F)cc3o2)c1C [Example 26] : 8.30 to 10.00
COc1nc(-c2cccc(-c3cccc(-c4nc5cc(CN6CCC[C@H]6C(=O)O)c(OC(F)F)cc5o4)c3C)c2C)ccc1CN1CCC[C@H]1C [Example 279] : 8.30 to 10.00
Cc1c(-c2nc3cc(CN(C)C)c(OCc4ccc(S(C)(=O)=O)cc4)cc3o2)cccc1-c1cccc(-c2nc3cc(CN4CCC[C@H]4C(=O)O)c(OC(F)F)cc3o2)c1C [Example 126] : 8.30 to 10.00
Cc1c(Nc2cc(CN3CCCC3)ccn2)cccc1-c1cccc(-c2nc3cc(OC(F)F)c(CN4CCC[C@H]4C(=O)O)cc3o2)c1C [Example 183] : 7.30 to 8.30
Cc1c(-c2ccc3c(c2)CN(CC(=O)O)C3)cccc1-c1cccc(-c2nc3cc(CN4CCC[C@H]4C(=O)O)c(OC(F)F)cc3o2)c1C [Example 291] : 8.30 to 10.00
Cc1c(-c2nc3cc(CN4CCC[C@H]4C(=O)O)c(OC(F)F)cc3o2)cccc1-c1cccc(-c2nc3cc(CN4CC5CC4C5)cc(C(F)(F)F)c3o2)c1C [Example 89] : 8.30 to 10.00

----------
Assay: Pharmacokinetic Assay, single oral dose 5 mg/kg (Table 12)
Format: in vivo
Details: mouse; plasma concentration, C57 female mice, single oral dose 5 mg/kg, 2 h
property_label: concentration at 2 h (ng/mL)

Cc1c(-c2ccc3[nH]c(N)nc3c2)cccc1-c1cccc(-c2nc3cc(CN4CCC[C@H]4C(=O)O)c(OC(F)F)cc3o2)c1C : 10.8
Cc1c(-c2nc3cc(CN4CCC[C@H]4C(=O)O)ccc3o2)cccc1-c1cccc(-c2nc3cc(CN4CCCC4)c(OC(F)F)cc3o2)c1C : 88.5
COc1nc(-c2cccc(-c3cccc(-c4nc5cc(CN6CCC[C@H]6C(=O)O)c(OC(F)F)cc5o4)c3C)c2C)cnc1CN1CCCC1 : 80
Cc1c(-c2nc3cc(CN4CCC[C@H]4C(=O)O)c(OC(F)F)cc3o2)cccc1-c1cccc(-c2ccc(CN3CCCC3)s2)c1C : 171

----------
Test: Pharmacokinetic Assay, single oral dose 5 mg/kg (Table 12)
Format: in vivo
Settings: mouse; plasma concentration, C57 female mice, single oral dose 5 mg/kg, 2 h
concentration at 2 h listing for selected compounds.
property_label: concentration at 2 h (ng/mL)

Cc1c(COc2cc(OCc3cncc(OC(F)F)c3)c(CN3CCC(F)C3)cc2Cl)cccc1-c1cccc(-c2nc3cc(CN4CCC[C@H]4C(=O)O)c(OC(F)F)cc3o2)c1C (some centres unmarked) : 54.9
C#CC1(O)CN(Cc2cc(C#N)c3oc(-c4cccc(-c5cccc(-c6nc7cc(CN8CCC[C@H]8C(=O)O)c(OC(F)F)cc7o6)c5C)c4C)nc3c2)C1 : 386
Cc1c(-c2nc3cc(CN4CCC[C@H]4C(=O)O)c(OC(F)F)cc3o2)cccc1-c1cccc(-c2nc3cc(CN4CCCC4)c(F)c(F)c3n2CC(F)(F)F)c1C : 212
Cc1c(-c2nc3c(o2)CCC3)cccc1-c1cccc(-c2nc3cc(CN4CCC[C@H]4C(=O)O)c(OC(F)F)cc3o2)c1C : 872
Cc1c(-c2nc3cc(CN4CCN(C)C(C)C4)c(OC(F)F)cc3o2)cccc1-c1cccc(-c2nc3cc(CN4CCC[C@H]4C(=O)O)c(OC(F)F)cc3o2)c1C (some centres unmarked) : 148
Cc1c(-c2nc3cc(CNCC(O)C(F)(F)F)c(OC(F)F)cc3o2)cccc1-c1cccc(-c2nc3cc(CN4CCC[C@H]4C(=O)O)c(OC(F)F)cc3o2)c1C (some centres unmarked) : 155
Cc1c(-c2nc3cc(CN4CC(C)(C)C4)c(OC(F)F)cc3o2)cccc1-c1cccc(-c2nc3cc(CN4CCC[C@H]4C(=O)O)c(OC(F)F)cc3o2)c1C : 136
Cc1c(-c2nc3cc(CN4CCC[C@H]4C(=O)O)c(OC(F)F)cc3o2)cccc1-c1cccc(-c2nc3cc(CN4CC(F)C(F)C4)cc(C#N)c3o2)c1C (some centres unmarked) : 877
